Measured values drawn from the supplement of paper PMC4466140 for this set.

Measured SPOT peptide array binding signal intensity, listed per entry for reference.
- TARGET_OR_TEST_SYSTEM: AgMyo5
- EXPERIMENT_SUMMARY: SPOT peptide array binding signal intensity (averaged, normalized) (arbitrary units (background-subtracted, floor 0; scale differs between SH3 domains)); higher = stronger binding of the SH3 domain to the peptide
RECORDED_METRIC: SPOT peptide array binding signal intensity

BINDER | OBS_VALUE
PSRRDSLSIPRAVDA | ≤ 0
QQEQNTPPLPPKPKS | ≤ 0
IHTRRPSSTSQYLIR | 194
NMLKKKPLKKPLKRF | ≤ 0
LLRRTIPKRPFYHVL | ≤ 0
KLSRGRYGLPLSSRP | ≤ 0
VPPVPLPFGIPPFPM | 720
